Each recorded value in this set is attributed to patent US7470658B2.

As shown below, each of these substances has a reported pIC50 value.
# tgt: E-selectin
# Sequence (P16581 22-175 limits assumed): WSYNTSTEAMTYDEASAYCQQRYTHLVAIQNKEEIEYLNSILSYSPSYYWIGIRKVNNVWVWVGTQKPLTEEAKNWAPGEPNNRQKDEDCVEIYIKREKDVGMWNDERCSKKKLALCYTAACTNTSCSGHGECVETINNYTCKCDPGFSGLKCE
# procedure text: Inhibition of binding between sLe^x-PAA-biotin and E-selectin:IgG by phage or peptides (ELISA)
# experimental parameters: synthetic peptides (FIG. 1E); read-out: half inhibition value (IC50) of binding between sLe^x and E-selectin
Schema: pIC50 number; meaning minus log10 of the concentration expressed in molar units.

substance="IELLQAR (SEQ ID NO:7) multivalent (Fmoc eight branch) [multivalent IELLQAR peptide, IELLQAR multivalent peptide, Fmoc eight branch MAPS, synthesized by AnaSpec]" tgt=E-selectin quantitative_result=5.00

Here is another substance to look at.
So for IELLQAR [linear heptapeptide] , the logged pIC50 turned out to be 3.70
